Target: T1, PUF4 RNA-binding domain (Saccharomyces cerevisiae, UniProt P25339 537-888)
T1 sequence: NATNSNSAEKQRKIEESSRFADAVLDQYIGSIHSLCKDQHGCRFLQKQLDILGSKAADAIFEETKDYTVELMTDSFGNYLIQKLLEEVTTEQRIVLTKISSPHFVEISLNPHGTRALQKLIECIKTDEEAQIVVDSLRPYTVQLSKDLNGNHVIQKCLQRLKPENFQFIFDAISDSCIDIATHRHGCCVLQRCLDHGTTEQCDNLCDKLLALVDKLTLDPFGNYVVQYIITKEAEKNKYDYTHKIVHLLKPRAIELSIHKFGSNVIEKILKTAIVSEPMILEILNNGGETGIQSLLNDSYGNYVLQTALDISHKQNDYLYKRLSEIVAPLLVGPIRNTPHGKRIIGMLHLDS
Test: Mg; RNA-MaP; 20 mM Na-HEPES pH 7.4, 30 mM KOAc, 0.75 mM MgCl2, 0.1% Tween-20, 5% glycerol, 0.1 mg/mL BSA, 2 mM DTT; 25 C; 0.0125-409.6 nM protein
Conditions: tags: N-His6-TEV cleaved; C-SNAP kept, Cy3B-labelled; label: tethered on chip by stalled RNA polymerase
Could you mark each record yes if its Kd falls strictly under 6 nM, and no if it equals or exceeds it?

- BINDER: "UCUCUUCAUAUAUUAUUAGUUCUCUU (ssRNA) [Id_ii_S1_P5E.3_K5.2_C5.2_[T-1A]_H5.2_A5.1_F5.1_T5.2_[T11G]_[A12T]]"
  LABEL_VALUE: "no"
- BINDER: "UCUCUUUCCCUUGUAUAUUAUCUCUU (ssRNA) [Ie_S1_P4E.1_K4.1_C4.1_H4.1_[+1CCCTT]_A4.1_F4.1_T4.1]"
  LABEL_VALUE: "yes"
- BINDER: "Ie_S2_P5E.1_K5.1_C5.1_H5.1_A5.1_[+6CT]_F5.1_T5.1 (ssRNA) RNA: UUUGAUUAAUAUGAUAUCGUUCUUUCUUGUAUUCUAUUAUUCUUUCUCGAUAUCAUAUUAAUCUUU"
  LABEL_VALUE: "yes"
- BINDER: "Id_ii_S4_P3E.3_K3.2_C3.2_[C-2T]_[T-1C]_H3.2_A3.1_F3.1_T3.2_[T9C]_[A10G] (ssRNA) RNA: UUUGACAACUGAUCGUUCUUUCUUCUAUAUAUACGUUCUUUCUCGAUCAGUUGUCUUU"
  LABEL_VALUE: "no"
- BINDER: "Ic_S2_P4E.1_K4.1_C4.1_H4.1_A4.1_[T5C]_[A6G]_[T7C]_F4.1_[T8G]_[A9T]_T4.1 (ssRNA) RNA: UUUGAUUAAUAUGAUAUCGUUCUUUCUUGUACGCGUUUCUUUCUCGAUAUCAUAUUAAUCUUU"
  LABEL_VALUE: "no"

Quick check: does UCUCUUUAACACUAUUAGCUCUCUU (ssRNA) [Id_ii_S1_P4E.4_K4.3_C4.2_[C-2T]_[T-1A]_H4.3_A4.1_F4.1_T4.2_[T11C]] have Kd under 6 nM? no

Quick check: does Id_ii_S2_P5E.2_K5.1_C5.2_[C-2A]_[T-1C]_H5.1_A5.1_F5.1_T5.2_[A12G] (ssRNA) RNA: UUUGAUUAAUAUGAUAUCGUUCUUUCUACUGUAUUAUUAUGUUCUUUCUCGAUAUCAUAUUAAUCUUU have Kd under 6 nM? no

Quick check: does Id_ii_S2_P3E.4_K3.3_C3.2_[T-1A]_H3.3_A3.1_F3.1_T3.2_[T9C]_[A10G] (ssRNA) RNA: UUUGAUUAAUAUGAUAUCGUUCUUUCUCAACACUAUACGUUCUUUCUCGAUAUCAUAUUAAUCUUU have Kd under 6 nM? no

Quick check: does Id_ii_S2_P5E.3_K5.2_C5.2_[C-2A]_H5.2_A5.1_F5.1_T5.2_[T11C]_[A12C] (ssRNA) RNA: UUUGAUUAAUAUGAUAUCGUUCUUUCUAUUAUAUUAUUACCUUCUUUCUCGAUAUCAUAUUAAUCUUU have Kd under 6 nM? no

Quick check: does UCUCUUAGUACAUAUCUCUU (ssRNA) [Ib_S1_P3E.1_K3.1_C3.1_H3.1_[T1A]_A3.1_[T5C]_F3.1_T3.1] have Kd under 6 nM? no

Quick check: does UCUCUUAUUGUAUAUUAGCUCUCUU (ssRNA) [Id_ii_S1_P4E.2_K4.1_C4.2_[C-2A]_H4.1_A4.1_F4.1_T4.2_[T11C]] have Kd under 6 nM? yes
